# assayDetails: Multi-component pharmacokinetic study of GQD, GQD-GC and single herb extracts in rats (plasma, LC/MS/MS)
# Type: in vivo, Sprague-Dawley rats
# conditionSet: male, Sprague-Dawley, rat; HL (Huang-Lian) group: rats, oral extract 3.54 g/kg, plasma; read-out: Tmax
testReadout: Tmax (min)

A: COc1ccc2cc3[n+](cc2c1OC)CCc1cc2c(cc1-3)OCO2
B: COc1ccc2c(c1O)-c1c(O)c(OC)cc3c1[C@H](C2)[N+](C)(C)CC3
Input: Kindly compare A with B and tell me which has the lower Tmax figure. Write down the label attached to your selection.
Output: A

====

# assayDetails: Multi-component pharmacokinetic study of GQD, GQD-GC and single herb extracts in rats (plasma, LC/MS/MS)
# Format: in vivo, Sprague-Dawley rats
# conditionSet: male, Sprague-Dawley, rat; HQ (Huang-Qin) group: rats, oral extract 3.54 g/kg, plasma; read-out: T1/2 (converted)
testReadout: half-life (h)

A selection of reference data follows.
compound	testReadout	measured
O=C(O)[C@H]1O[C@@H](Oc2cc(O)c3c(=O)cc(-c4ccccc4)oc3c2O)[C@H](O)[C@@H](O)[C@@H]1O [Compound 14, norwogonin 7-O-glucuronide]	half-life	5.1
O=C(O)[C@H]1O[C@@H](Oc2cc3oc(-c4ccccc4)cc(=O)c3c(O)c2O)[C@H](O)[C@@H](O)[C@@H]1O	half-life	3.32
O=c1cc(-c2ccccc2)oc2cc(O)c(O)c(O)c12	half-life	5.99

P: COc1c(O)cc(O)c2c(=O)cc(-c3ccccc3)oc12
Q: COc1c(O)cc(OC2OC(CO)C(O)C(O)C2O)c2c(=O)cc(-c3ccccc3)oc12 (stereo not drawn) [Compound 13, wogonin 5-O-glucoside]
R: COc1c(O)c(O[C@@H]2O[C@H](C(=O)O)[C@@H](O)[C@H](O)[C@H]2O)cc2oc(-c3ccccc3)cc(=O)c12 [Compound 38, lateriflorein 7-O-glucuronide]
Input: Please rank these compounds by half-life in descending order. Answer format: the labels, in the requested order.
Output: Q, P, R
(Q: 16.1 h, P: 5.45 h, R: 1.58 h)

====

# assayDetails: Multi-component pharmacokinetic study of GQD, GQD-GC and single herb extracts in rats (plasma, LC/MS/MS)
# Assay type: in vivo, Sprague-Dawley rats
# conditionSet: male, Sprague-Dawley, rat; HQ (Huang-Qin) group: rats, oral extract 3.54 g/kg, plasma; read-out: Cmax
testReadout: Cmax (ng/mL)

P: O=C(O)[C@H]1O[C@@H](Oc2cc(O)c3c(=O)cc(-c4ccccc4)oc3c2O)[C@H](O)[C@@H](O)[C@@H]1O [Compound 14, norwogonin 7-O-glucuronide]
Q: COc1c(O)cc(OC2OC(CO)C(O)C(O)C2O)c2c(=O)cc(-c3ccccc3)oc12 (stereo not drawn) [Compound 13, wogonin 5-O-glucoside]
R: COc1c(O)cc(O)c2c(=O)cc(-c3ccccc3)oc12 [Compound 8, wogonin]
Input: Order the 3 listed items from lowest to highest according to Cmax. Answer format: the labels, in the requested order.
Output: Q, R, P

====

# assayDetails: Multi-component pharmacokinetic study of GQD, GQD-GC and single herb extracts in rats (plasma, LC/MS/MS)
# Format: in vivo, Sprague-Dawley rats
# conditionSet: male, Sprague-Dawley, rat, in vivo, po, 3.54 g/kg
testReadout: half-life (h)

A selection of reference data follows.
> print(dat)
                                   compound  measured
1  O=c1cc(-c2ccccc2)oc2cc(O)cc(O)c12 [Compound 18, chrysin]      4.87
2  c1c2c(cc3c1OCO3)-c1cc3ccc4c(c3c[n+]1CC2)OCO4 [Compound 21, coptisine]      3.83

I: COc1cc2c(cc1OC)-c1cc3ccc(OC)c(OC)c3c[n+]1CC2 [Compound 25, palmatine]
II: COc1c(O)cc2oc(-c3ccccc3)cc(=O)c2c1O [Compound 9, oroxylin A]
Input: Hi team, can someone confirm which has the larger half-life: I or II ? Thanks. Write down the label attached to your selection.
Output: II
(II: 5.29 h, I: 3.25 h)

====

Measured half-life, listed per entry.
# assayDetails: Multi-component pharmacokinetic study of GQD, GQD-GC and single herb extracts in rats (plasma, LC/MS/MS)
# Type: in vivo, Sprague-Dawley rats
# conditionSet: male, Sprague-Dawley, rat, in vivo; GG (Ge-Gen) group: rats, oral extract 9.45 g/kg, plasma; read-out: T1/2 (converted)
Answer with a number only, understood to be in h.

> print(dat)
                                   molecule  unitstring  measured
1  COc1cc(-c2coc3c(C4OC(COC5OCC(O)(CO)C5O)C(O)C(O)C4O)c(O)ccc3c2=O)ccc1O (centres unmarked)           h      1.37

Input: So what does the record say about half-life for O=c1c(-c2ccc(O)cc2)coc2cc(O[C@@H]3O[C@H](CO)[C@@H](O)[C@H](O)[C@H]3O)ccc12 ?
Output: 0.74

====

Measured AUC(0-t), listed per entry.
# assayDetails: Multi-component pharmacokinetic study of GQD, GQD-GC and single herb extracts in rats (plasma, LC/MS/MS)
# Type: in vivo, Sprague-Dawley rats
# conditionSet: male, Sprague-Dawley, rat, plasma, po, 3.54 g/kg; Huang-Lian group: rats, oral 3.54 g/kg, plasma; read-out: AUClast
# Excerpt: Male Sprague-Dawley rats (220–250 g) were used for PK study, and the details were described in Supplemental Data. All procedures were in accordance with the National Institutes of Health Guide for the Care and Use of Laboratory Animals. […] A Finnigan TSQ Quantum triple quadrupole mass spectrometer was connected to a Surveyor HPLC via ESI interface (ThermoFisher). […] Analytes were detected in the selected reaction monitoring (SRM) mode. […]
Answer with a number only, understood to be in ng·h/mL.

> print(dat)
                                   molecule  unitstring  measured
1  COc1cc2c(cc1O)CC[n+]1cc3c(OC)c(OC)ccc3cc1-2 [Compound 23, jatrorrhizine]     ng·h/mL       119

Note: attention shifts to another entry.
Input: So what does the record say about AUC(0-t) for COc1ccc2cc3[n+](cc2c1OC)CCc1cc2c(cc1-3)OCO2 [Compound 24, berberine] ?
Output: 198

====

# assayDetails: Multi-component pharmacokinetic study of GQD, GQD-GC and single herb extracts in rats (plasma, LC/MS/MS)
# Format: in vivo, Sprague-Dawley rats
# conditionSet: male, Sprague-Dawley, rat, in vivo, po, 18.9 g/kg
testReadout: Cmax (ng/mL)

compound	unitString	measured
c1c2c(cc3c1OCO3)-c1cc3ccc4c(c3c[n+]1CC2)OCO4	ng/mL	6.56
O=c1c(-c2ccc(O)cc2)coc2cc(O)ccc12	ng/mL	186
O=C1C[C@@H](c2ccc(O[C@@H]3O[C@H](CO)[C@@H](O)[C@H](O)[C@H]3O)cc2)Oc2cc(O)ccc21	ng/mL	20.8

I: COc1cc2c(cc1OC)-c1cc3ccc(OC)c(OC)c3c[n+]1CC2
II: O=C1C[C@@H](c2ccc(O)cc2)Oc2cc(O)ccc21
III: CC1(C(=O)O)CCC2(C)CCC3(C)C(=CC(=O)C4C5(C)CCC(OC6OC(C(=O)O)C(O)C(O)C6OC6OC(C(=O)O)C(O)C(O)C6O)C(C)(CO)C5CCC43C)C2C1 (stereo not drawn)
Input: Please produce an ascending ranking of these compounds based on Cmax. Answer format: the labels, in the requested order.
Output: III, I, II
(III: 10.3 ng/mL, I: 17.1 ng/mL, II: 27.4 ng/mL)

====

# assayDetails: Multi-component pharmacokinetic study of GQD, GQD-GC and single herb extracts in rats (plasma, LC/MS/MS)
# Format: in vivo, Sprague-Dawley rats
# conditionSet: male, Sprague-Dawley, rat, plasma, po, 9.45 g/kg; Ge-Gen group: rats, oral 9.45 g/kg, plasma; read-out: AUClast
# Source text: Male Sprague-Dawley rats (220–250 g) were used for PK study, and the details were described in Supplemental Data. All procedures were in accordance with the National Institutes of Health Guide for the Care and Use of Laboratory Animals. […] A Finnigan TSQ Quantum triple quadrupole mass spectrometer was connected to a Surveyor HPLC via ESI interface (ThermoFisher). […] Analytes were detected in the selected reaction monitoring (SRM) mode. […]
testReadout: AUC(0-t) (ng·h/mL)
Answer with a number only, understood to be in ng·h/mL.

Input: So what does the record say about AUC(0-t) for O=c1c(-c2ccc(O)cc2)coc2c([C@@H]3O[C@H](CO)[C@@H](O)[C@H](O)[C@H]3O)c(O)ccc12 [Compound 7, puerarin] ?
Output: 5020

====

Measured AUC(0-t), listed per entry.
# assayDetails: Multi-component pharmacokinetic study of GQD, GQD-GC and single herb extracts in rats (plasma, LC/MS/MS)
# Type: in vivo, Sprague-Dawley rats
# conditionSet: male, Sprague-Dawley, rat, in vivo, po, 16.5 g/kg, GQD-GC group (GQD without Gan-Cao): rats, oral 16.5 g/kg, plasma; read-out: AUClast
Answer with a number only, understood to be in µg·h/mL.

> print(dat)
                                   compound  unitstring  measured
1  COc1cc(-c2coc3c(C4OC(COC5OCC(O)(CO)C5O)C(O)C(O)C4O)c(O)ccc3c2=O)ccc1O (centres unmarked)     µg·h/mL    0.0425

Note: attention shifts to another entry.
Input: So what does the record say about AUC(0-t) for O=c1c(-c2ccc(O)cc2)coc2cc(O[C@@H]3O[C@H](CO)[C@@H](O)[C@H](O)[C@H]3O)ccc12 ?
Output: 0.282
